Hey, just so you know, these numbers are from PubChem BioAssay AID1159580.

# ASSAY REMARKS: chemical genetic growth profiling, strain panel (AID 1159580);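 further: tested at 20 µM; growth read once vehicle control cultures reached saturation at 30 °C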
# PROTOCOL CONDITIONS: S. cerevisiae deletion strains, growth OD, locus YEL061C, strain CIN8, stronger effect = lower value
The campaign covered roughly 5,500 compounds. About 2,000 (36%) were called active. Not shown: some 18% with an inconclusive outcome. Some of the results follow.
API: label(entry) gives Y if the entry's normalized growth is strictly smaller than 1; on equality or larger values it gives N.

Some solved entries appear below for comparison.
>  <MOLECULE>
O=C(CSc1ccc(C(F)(F)F)cn1)N1CCc2c([nH]c3ccccc23)C1C(F)(F)F (stereo unspecified)

>  <CLASSIFICATION>
Y

$$$$
>  <MOLECULE>
CC(=O)O[C@H]1C(=O)[C@@]2(C)C([C@H](OC(=O)c3ccccc3)[C@]3(O)C[C@H](OC(=O)[C@H](O)[C@@H](NC(=O)c4ccccc4)c4ccccc4)C(C)=C1C3(C)C)[C@]1(OC(C)=O)CO[C@@H]1C[C@@H]2O (stereo partly specified)

>  <CLASSIFICATION>
N

$$$$

Find out if reported normalized growth for CC(C)=CCc1c(O)cc(C)oc1=O is less than 1
N

Find out if reported normalized growth for C/C=C(/C(=C/C)c1ccc(O)cc1)c1ccc(O)cc1 is less than 1
Y

Find out if reported normalized growth for CCCC(C)(SCC(=O)O)SCC(=O)O is less than 1
Y

Find out if reported normalized growth for CC1(C)C2CC[C@]3(C)C(C(=O)C=C4[C@H]5C[C@@](C)(C(=O)O)CC[C@]5(C)CC[C@]43C)[C@@]2(C)CC[C@@H]1O (stereo partly specified) is less than 1
N

Find out if reported normalized growth for COc1c(CC=C(C)C)c2c(c3oc(=O)c(-c4ccc(O)cc4)c(O)c13)C=CC(C)(C)O2 is less than 1
Y
